Target: T1, mouse PAI-1 (mouse, UniProt P22777 24-401)
T1 sequence: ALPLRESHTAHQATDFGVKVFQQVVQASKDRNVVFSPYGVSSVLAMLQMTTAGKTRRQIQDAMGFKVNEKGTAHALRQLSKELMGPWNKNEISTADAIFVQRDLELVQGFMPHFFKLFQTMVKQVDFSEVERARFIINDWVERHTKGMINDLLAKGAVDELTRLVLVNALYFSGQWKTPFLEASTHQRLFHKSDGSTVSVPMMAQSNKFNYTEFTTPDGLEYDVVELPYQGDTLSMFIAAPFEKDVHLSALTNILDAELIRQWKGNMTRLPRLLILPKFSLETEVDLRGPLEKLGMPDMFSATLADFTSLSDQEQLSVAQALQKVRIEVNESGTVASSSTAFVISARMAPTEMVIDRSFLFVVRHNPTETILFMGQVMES
Assay: cell-based or functional assay
Measurement Name: IC50 ratio mouse/human
Output spec: single numeric token, no unit.

Binder	IC50 ratio mouse/human
Antibody 15, scFv (scFv, V domains shown) VH: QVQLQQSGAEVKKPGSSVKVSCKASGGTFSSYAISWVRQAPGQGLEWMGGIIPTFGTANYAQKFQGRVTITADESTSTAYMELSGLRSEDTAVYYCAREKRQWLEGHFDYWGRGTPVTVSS VL: DIQMAQSPSFLSASIGDRVTITCRASEGIYHNLAWYQQKPGKAPKLLIYRASSLASGAPSRFSGSGSGTDFTLTISSLQPDDFATYYCQQYSNYPLTFGGGTKLEIR	9.3
Antibody 17, scFv (scFv, V domains shown) VH: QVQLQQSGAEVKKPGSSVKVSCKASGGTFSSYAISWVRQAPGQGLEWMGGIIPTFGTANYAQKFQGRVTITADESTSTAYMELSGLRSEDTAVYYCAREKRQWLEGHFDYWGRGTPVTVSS VL: DIQMTQSPSFLSASIGDRVTITCRASEGIYHELAWYQQKPGKAPKLLIYRASSLASGAPSRFSGSGSGTDFTLTISSLQPDDFATYYCQQYSNYPLTFGGGTKLEIK	0.4

Now take the following binder into account.
Request: Would you kindly share the measured IC50 ratio mouse/human for Antibody 11, scFv (scFv, V domains shown) VH: QVQLQQSGAEVKKPGSSVKVSCKASGGTFSSYAISWMRQAPGQGLEWMGGIIPIFGTANYAQKFQGRVTITADESTSTAYMELSGLRSEDTAVYYCAREKRQWLEGHFDYWGRGTPVTVSS VL: DIQMIQSPSFLSASTGDRVTITCQASEGIYHELAWYQQKPGKAPKLLIYRASSLASGAPSRFSGSGSGTDFTLTISSLQPDDFATYYCQQYSNYPLTFGGGTKLEIK ?
Response: 0.3
